These entries and their values trace back to patent US6864275B1.

Test system: colon tumor cells (HT29)
Experiment: MTT cell growth inhibition, HT29 colon tumor cells
Format: cell-based
Conditions: 3-6 days incubation, read-out: IC50 Human Colon Carcinoma
pIC50: −log10 of the molar value.
Property Name: pIC50

* C=CCCOC(=O)c1ccc2nc(NC(=O)OC)[nH]c2c1 | 8.12

1: COC(=O)Nc1nc2ccc(C(=O)OCCC(C)CC(C)(C)C)cc2[nH]1 (centres unmarked)
2: COC(=O)Nc1nc2ccc(C(=O)NCC3CCCO3)cc2[nH]1 (centres unmarked)
3: COC(=O)Nc1nc2ccc(C(=O)OCc3ccccc3)cc2[nH]1
4: CCN(CC)CCCNC(=O)c1ccc2nc(NC(=O)OC)[nH]c2c1
# ascending order, key=pIC50 Please respond by ranking the labels in the order requested. 4, 2, 3, 1
(4: 3.40, 2: 4.45, 3: 7.48, 1: 7.89)

====

Test system: colon tumor cells (HT29)
Test: MTT cell growth inhibition, HT29 colon tumor cells
Assay type: cell-based
Conditions: 3-6 days incubation, read-out: IC50 Human Colon Carcinoma
Property Name: IC50 (nM)

• COC(=O)Nc1nc2ccc(C(=O)NCCN3CCOCC3)cc2[nH]1 = 121000
• CCC(C)COC(=O)c1ccc2nc(NC(=O)OC)[nH]c2c1 (centres unmarked) = 12
• COC(=O)Nc1nc2ccc(C(=O)OCCCCl)cc2[nH]1 = 54
• COC(=O)Nc1nc2ccc(C(=O)OCC(C)CC(C)(C)C)cc2[nH]1 (centres unmarked) = 19

a: COC(=O)Nc1nc2ccc(C(=O)NCCC(C)(C)C)cc2[nH]1
b: COC(=O)Nc1nc2ccc(C(=O)OCCC(C)CCC=C(C)C)cc2[nH]1 (centres unmarked)
c: COC(=O)Nc1nc2ccc(C(=O)NCCN(C)C)cc2[nH]1
d: COCCNC(=O)c1ccc2nc(NC(=O)OC)[nH]c2c1
Reorder: IC50, max to min. Please respond by ranking the labels in the order requested. c, d, a, b
